target: PDE4B (human recombinant) (Homo sapiens, UniProt Q07343); construct: made in house; assay: Inhibition of PDE4B activity: SPA and/or Fluorescence Polarisation (FP) assay; type: biochemical; settings: one reading (n=1) or average of 2 or more readings, read-out: PDE4B pIC50 (±about 0.5) (converted)
Sequence (Q07343 1-564 isoform Q07343-2): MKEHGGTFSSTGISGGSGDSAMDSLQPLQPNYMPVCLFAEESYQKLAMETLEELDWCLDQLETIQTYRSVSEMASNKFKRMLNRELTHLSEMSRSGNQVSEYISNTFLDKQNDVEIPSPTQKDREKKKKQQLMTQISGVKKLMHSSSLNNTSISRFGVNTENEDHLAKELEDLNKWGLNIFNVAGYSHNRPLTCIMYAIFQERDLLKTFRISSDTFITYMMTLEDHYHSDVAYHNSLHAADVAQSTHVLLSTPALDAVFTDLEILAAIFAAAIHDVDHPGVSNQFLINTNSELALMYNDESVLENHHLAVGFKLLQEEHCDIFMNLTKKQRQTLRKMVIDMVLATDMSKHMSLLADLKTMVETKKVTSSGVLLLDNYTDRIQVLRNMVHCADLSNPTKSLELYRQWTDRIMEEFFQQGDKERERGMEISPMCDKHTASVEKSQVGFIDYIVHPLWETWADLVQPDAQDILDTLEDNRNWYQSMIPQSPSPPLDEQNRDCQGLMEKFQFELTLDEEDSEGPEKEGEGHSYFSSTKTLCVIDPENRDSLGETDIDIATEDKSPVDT
experimental.endpoint: IC50

# annotated cases, reported IC50 shown
Per the record, CCn1ncc2c(NC3CCN(C(N)=O)CC3)c(CNC(=O)c3ccc(C(C)(C)C)cc3O)c(C)nc21 has IC50 of 0.01 to 0.1 nM

Per the record, CCc1nc2c(cnn2CC)c(NC2CCOCC2)c1CNC(=O)c1ccc(C(N)=O)cc1 has IC50 of 0.01 to 0.1 nM

Per the record, CCc1nc2c(cnn2CC)c(NC2CCOCC2)c1CNC(=O)c1coc(C)n1 has IC50 of 0.126 to 1 nM

Now for a further compound.
Per the record, CCn1ncc2c(NC3CCN(C(N)=O)CC3)c(CNC(=O)c3cccc(N4CCCC4=O)c3)c(C)nc21 has IC50 of 0.01 to 0.1 nM
